tested on: MDA-MB-435
Respond using exactly one of the listed classes: active, inactive

// query Recorded test call requested for CCN(CC)CCCC(C)Nc1ccnc2cc(Cl)ccc12 (stereo not drawn)
// result inactive

// query Recorded test call requested for COc1ccc(C#Cc2ccc(=O)oc2-c2cc(OC)c(OC)c(OC)c2)cc1O
// result active

// query Recorded test call requested for O=c1oc2ccc(I)cc2c(=O)n1-c1ccc(F)cc1F
// result inactive

====

system: M14 melanoma; experiment: NCI tumour cell line growth inhibition, 48 h
readout-kind: TGI

Example cases with answers are listed next.
CCOC(=O)CC(c1ccccc1)C(C)(C(=O)OCC)C(=O)OCC (stereo not given)
> 100 µM
O=c1[nH]nc(NCc2ccccc2)c2nnn(Cc3ccccc3)c12
> 100 µM
O=C1/C(=C/c2ccccc2)CN(C(=O)C(Cl)Cl)C/C1=C\c1ccccc1
2.15 µM
N#CC(/C(CCC(=O)Nc1ccc(Cl)cc1)=N/NC(=O)c1cc2ccccc2cc1O)c1ccccc1 (stereo not given)
> 100 µM
NCCSc1cc(O)c2c(c1N)C(=O)c1ccccc1C2=O
> 100 µM
CC(C)C(=O)N1Cc2cc(Cl)cc(Cl)c2OC(=O)c2ccccc21
61.7 µM
Oc1ccc(O)c(-c2cn3c(n2)SCC3)c1
31.3 µM
COc1cc2c(cc1OC)C1C(=O)c3c(O)cc4c(c3OC1CO2)C=CC(C)(C)O4 (stereo not given)
76.3 µM
N/N=C1\C(=O)N(Cc2ccccc2)C(=O)C1C(=O)NCc1ccccc1 (stereo not given)
> 100 µM

Now turn to the next molecule.
// query Answer with TGI of CC1=CC(C)=NN=C(N)N1S(=O)(=O)c1cc(C)c(Cl)cc1SCc1ccccc1 measured for M14 melanoma.
// result > 100 µM

====

test system: CAKI-1 renal; experiment: NCI tumour cell line growth inhibition, 48 h; in the data active = GI50 below about 0.43 µM; inactive = the rest
Respond using exactly one of the listed classes: label 1 (active), label 0 (inactive)

Examples from the recorded data:
CC(=O)/C(=C/c1ccccc1)C(=O)CC(C)C
label 0
CCC[CH2][Sn]([CH2]CCC)([O]c1cccc2cccnc12)[O]c1cccc2cccnc12
label 1
COc1ccc(C#Cc2ccc(=O)oc2-c2cc(OC)c(OC)c(OC)c2)cc1O
label 0
Oc1ccc(O)c(-c2cn3c(n2)SCC3)c1
label 0
CSCS(=O)C[C@H](CO)NC(=O)/C=C/c1c(C)[nH]c(=O)[nH]c1=O (stereo partly specified)
label 0

Please find the next compound below.
// query Recorded test call requested for COc1cccc(/C=C/C(=O)c2ccc(SC)cc2)c1OC
// result label 0

====

system: OVCAR-5 ovarian; test: NCI tumour cell line growth inhibition, 48 h
readout-kind: GI50

Example cases with answers are listed next.
O=C(CCl)NCCNc1nccc(Nc2ccc(S(=O)(=O)Nc3ccccn3)cc2)n1
2.28 µM
CCCCCCCCCCCCCCCC1=NCCN1
2.26 µM
O=c1oc2ccc(I)cc2c(=O)n1-c1ccc(F)cc1F
3.96 µM
NCCc1ccc(S(=O)(=O)F)cc1
43.4 µM
Oc1ccc(O)c(-c2cn3c(n2)SCC3)c1
17.5 µM

Take each entry in turn and give its GI50.
1. COc1ccc(C=Nc2c(C(=O)Nc3cccc(Cl)c3C)sc3nc(C)c(C(=O)/C=C/c4ccc(OC)cc4)cc23)cc1
2. O=C(Nc1ccc(Cc2ccccc2)cc1)Nc1nn(C(=O)Nc2ccc(Cc3ccccc3)cc2)c2ccccc12
3. COc1cc2c(c(OC)c1OC)-c1ccc(O)cc1[C@@H](NC(C)=O)CC2
4. CCCCOC(=O)c1ccc(N)cc1
5. O=C1/C(=C/c2ccccc2)CN(C(=O)C(Cl)Cl)C/C1=C\c1ccccc1
6. CC/C=C\C[C@H](F)C/C=C1/C(=O)C=C[C@@H]1C/C=C\CCCC(=O)OC
7. C[C@@]1(C(=O)O)CCC[C@]2(C)C1CC[C@@]13C[C@@](O)(CC[C@]12O)[C@@]1(CO1)C3 (stereo not given in full)

// result
2.04 µM
> 100 µM
0.215 µM
34.8 µM
1.06 µM
3.35 µM
> 100 µM

Take each entry in turn and give its GI50.
1. O=S(=O)(CCN1CCOCC1)Nc1cc(-c2ccc3ncnc(Nc4ccc(F)c(Cl)c4)c3c2)cnc1Cl
2. COc1cccc(/C=C/C(=O)c2ccc(SC)cc2)c1OC
3. C=C(CN1CCN(c2ccc(C(F)(F)F)cc2)CC1)c1ccc(C(=O)Nc2ccccc2N)cc1
4. Cc1c(O)c(N=Nc2nc3ccccc3s2)c2ccccc2c1O
5. Oc1ccc(Nc2ccc3ccccc3c2)cc1

// result
1: 0.492 µM; 2: 18.7 µM; 3: > 100 µM; 4: > 50 µM; 5: 22.7 µM

====

system: OVCAR-3 ovarian; assay: NCI tumour cell line growth inhibition, 48 h
Assign TGI to each entry below.

Example cases with answers are listed next.
CCNC(=O)c1cc(Cl)ccc1NC(=O)C12CC3CC(CC(C3)C1)C2
> 100 µM
COc1cc2c3cc1Oc1c(O)c(OC)cc4c1C(Cc1ccc(O)c(c1)Oc1ccc(cc1)CC3N(C)CC2)N(C)CC4 (stereo not given)
30.5 µM
CCOP(=O)(OCC)/C(C#N)=C/c1cccn1C(C)C
> 100 µM
COc1ccc(/C=C/C(=O)/C=C/c2ccc(OC)cc2OC)c(OC)c1
7.37 µM

Take each entry in turn and give its TGI.
1. COC(=O)c1ccc2c(c1)C(=O)c1c-2n(CCCCl)c(=O)c2cc([N+](=O)[O-])ccc12
2. CC1(C)S[C@@H]2[C@H](N3C(=O)c4ccccc4C3=O)CN2[C@H]1NC(=O)N[C@@H]1N2C[C@@H](N3C(=O)c4ccccc4C3=O)[C@H]2SC1(C)C
3. COc1cccc(/C=C/C(=O)c2ccc(SC)cc2)c1OC
4. CN(C)CCCN(CCC1CCCCC1)CCC1CCCCC1
5. N#Cc1c(NCc2ccccc2)nc(NCc2ccccc2)c(C#N)c1-c1ccc(O)cc1

// result
1. > 100 µM
2. > 100 µM
3. 32 µM
4. 5.63 µM
5. 87.4 µM

Take each entry in turn and give its TGI.
1. N#CC(N=Nc1ccccc1C(=O)O)C(N)=O (stereo not given)
2. COc1cc2c(cc1OC)C1C(=O)c3c(O)cc4c(c3OC1CO2)C=CC(C)(C)O4 (stereo not given)
3. O=C(CCl)NCCNc1nccc(Nc2ccc(S(=O)(=O)Nc3ccccn3)cc2)n1
4. O=C1/C(=C/c2ccccc2)CN(C(=O)C(Cl)Cl)C/C1=C\c1ccccc1
5. NNC(=O)CC(=O)Nc1cccc(Cl)c1
6. CN(C)CCN1C(=O)c2cccc3cc([N+](=O)[O-])cc(c23)C1=O
7. CSc1nc(C)cc(Nc2ccc(O)c(CN3CCOCC3)c2)n1

// result
> 100 µM
65.5 µM
6.17 µM
1.06 µM
> 100 µM
6.27 µM
> 100 µM

Take each entry in turn and give its TGI.
1. S=C(N/N=C(\c1ccccc1)c1ccccn1)NC1CCCCC1
2. CO[C@H]1C=CO[C@@]2(C)Oc3c(C)c(O)c4c(O)c(c(CN5CCN(C)CC5)c(O)c4c3C2=O)NC(=O)/C(C)=C\C=C[C@H](C)[C@H](O)C(C)[C@@H](O)C(C)[C@H](OC(C)=O)[C@@H]1C (stereo not given in full)
3. Cc1ccc2oc(=O)cc(/C(=C3/C=CC=N3)c3ccc[nH]3)c2c1

// result
1: > 100 µM; 2: 14.4 µM; 3: 0.707 µM

// query Return TGI (reported value) for this compound: c1ccc(-c2nc3ccccc3nc2SCc2cccnc2)cc1
// result > 100 µM

====

test system: HL-60(TB) leukemia; experiment: NCI tumour cell line growth inhibition, 48 h
If the reported TGI equals or exceeds 20 µM, assign yes (1). If not, assign no (0).

Examples from the recorded data:
CC(C)C(=O)N1Cc2cc(Cl)cc(Cl)c2OC(=O)c2ccccc21
yes (1)
CCC(C)C(N)C(=O)NC(CC(N)=O)C(=O)NC(CC(C)C)C(=O)NC(CCCCN)C(=O)NC(C)C(=O)NC(CC(C)C)C(=O)NC(C)C(=O)NC(C)C(=O)NC(CC(C)C)C(=O)NC(C)C(=O)NC(CCCCN)C(=O)NC(CCCCN)C(=O)NC(C(=O)NC(CC(C)C)C(N)=O)C(C)CC (configuration not stated)
no (0)
O=S(=O)([O-])c1ccc(N=Cc2ccccc2[O-])cc1.O=S(=O)([O-])c1ccc(N=Cc2ccccc2[O-])cc1.[Co+2]
yes (1)
CC1CCN(Cc2ccc(NC(=O)c3cc4ccc5cccnc5c4[nH]3)cc2)CC1
no (0)
O=C1/C=C/[C@@H](O)[C@@H]2C[C@@H](O)C[C@H]2/C=C/CCC[C@H](CCc2cccc3ccccc23)O1
no (0)
COc1ccc([N+](=O)[O-])c2c(NCCCN(C)C)ccnc12
yes (1)

Please find the next molecule below.
// query # check: TGI of COc1cc(C2c3cc4c(cc3[C@@H](Nc3cccc(CO)c3)C3COC(=O)[C@H]23)OCO4)cc(OC)c1O (some centres not stated) is greater than or equal to 20 µM
// result no (0)
